# System: MYB
# Test description: 3' UTR reporter interaction score (median-centred robust z-score of log2 firefly/Renilla activity); higher = less repression of the 3' UTR reporter
# Condition context: HEK293T; 48 h
Please enter class 1 where 3' UTR reporter interaction score is greater than or equal to -0.03, and class 0 where it is lower.

Entry AUCAUGAUGGGCUCCUCGGUGU : is its 3' UTR reporter interaction score no less than -0.03?
class 1

Entry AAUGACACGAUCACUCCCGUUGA : is its 3' UTR reporter interaction score no less than -0.03?
class 0

Entry UAAGUGCUUCCAUGUUUCAGUGG : is its 3' UTR reporter interaction score no less than -0.03?
class 0

Entry GUUCAAAUCCAGAUCUAUAAC : is its 3' UTR reporter interaction score no less than -0.03?
class 0

Entry UUACAGUUGUUCAACCAGUUACU : is its 3' UTR reporter interaction score no less than -0.03?
class 0

Entry AACACACCUGGUUAACCUCUUU : is its 3' UTR reporter interaction score no less than -0.03?
class 1

Entry UGGUGCGGAGAGGGCCCACAGUG : is its 3' UTR reporter interaction score no less than -0.03?
class 0

Entry AUCAUAGAGGAAAAUCCACGU : is its 3' UTR reporter interaction score no less than -0.03?
class 0
